B1: TPR t1 (parent)
chain: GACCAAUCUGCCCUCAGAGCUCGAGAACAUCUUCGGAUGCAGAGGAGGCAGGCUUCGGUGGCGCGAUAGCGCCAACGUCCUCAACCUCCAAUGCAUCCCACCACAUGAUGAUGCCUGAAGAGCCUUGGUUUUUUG

- Variants of: B1
- procedure_details: polymerase ribozyme fitness, log enrichment relative to wild type (log ratio); higher = more active; in vitro selection for triplet polymerase activity
quantity_measured: polymerase ribozyme fitness (log ratio)

In [3]: df
Out[3]:
     variant_identifier  measurement
0              C8A C89U        0.136
1            C34A U116C         -5.3
2  G44C C56U C79A C101U        -2.56
3             A26C G61A        -3.85
4       C86G C89A C114A        -4.58

If you can, please state the reported polymerase ribozyme fitness (log ratio) value of C15G U106G G117C .
0.15
